Target: G-protein coupled estrogen receptor 1 (Homo sapiens)
Assay: displacement of E2-Alexa633 from GPER – cell-based, Cos7 GPR30-GFP, flow cytometry, 10 µM, primary screen (AID 1212)
Conditions: fluorescent estrogen competition, at 10 µM; active compounds read high
Activity calls are given as the source filed them.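 The calls were made as follows: active = blocks over 60% of fluorescent estradiol binding at 10 µM; inactive = the rest.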
recorded_metric: inhibition

| molecule | inhibition |
| --- | --- |
| O=c1oc2cc(O)ccc2c2c1CCC2 | inactive |
| COc1ccc(NS(=O)(=O)c2ccc3c(c2)[C@H]2C=CC[C@H]2[C@@H](c2cccc(OC)c2OC)N3)cc1 | 44% (inactive) |
| CCCc1c(C(=O)OCC)[nH]c2c1C(=O)CC(c1ccccc1)C2 (stereo not given) | inactive |
| COc1cc2c(cc1OC)C(Cc1ccc(O)cc1)N(C)CC2 (stereo not given) | 1% (inactive) |

Please find the next molecule below.
[Q] For CCOc1cc2c(c([N+](=O)[O-])c1)NC(c1ccccc1)C1CC=CC21 (stereo not given) , write its inhibition.
[A] 38% (inactive)

* * *

Target: G-protein coupled estrogen receptor 1 (Homo sapiens)
Assay: displacement of E2-Alexa633 from GPER – cell-based, Cos7 GPR30-GFP, flow cytometry, 10 µM, primary screen (AID 1212)
Conditions: fluorescent estrogen competition, at 10 µM
Calls of active or inactive are those of the source.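 How the source made its calls: active means blocks over 60% of fluorescent estradiol binding at 10 µM; inactive means the rest.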
Select the correct class. Options are active, inactive and nothing else.

Worked examples, 4 compounds total:
| compound | group_label |
| --- | --- |
| CCOc1ccc(NS(=O)(=O)c2ccc3c(c2)[C@H]2C=CC[C@H]2[C@@H](c2ccc(C(=O)O)cc2)N3)cc1 | active |
| CC1(C)CC(=O)C=C(NC2CC(C)(C)NC(C)(C)C2)C1 | inactive |
| CC(C)C1CC(CCNCc2ccc3c(c2)OCO3)(c2ccccc2)CCO1 (stereo not given) | inactive |
| CC(C)COc1ccc2c(c1)c1c3n2CCNC3CCC1 (stereo not given) | inactive |

Now, please, on to the next compound.
[Q] Would you mind telling me which call this test gave COc1ccc2[nH]c3c(c2c1)CCNC3=O ?
[A] inactive

* * *

Target: G-protein coupled estrogen receptor 1 (Homo sapiens) (UniProt Q99527)
Experiment: displacement of E2-Alexa633 from GPER – cell-based, Cos7 GPR30-GFP, flow cytometry, 10 µM, primary screen (AID 1212)
Details: fluorescent estrogen competition, at 10 µM; active compounds read high
Calls of active or inactive are those of the source.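 Rule for the calls: active = blocks over 60% of fluorescent estradiol binding at 10 µM; inactive = the rest.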
recorded_metric: inhibition

Here are 5 compounds together with their reported answers.
| compound | value_observed |
| --- | --- |
| CCOc1cc2c(cc1OCC)C(C(CC)CC)NCC2 (configuration not stated) | inactive |
| COc1cc2c(c([N+](=O)[O-])c1)NC(c1ccc(Br)cc1)C1CC=CC21 (configuration not stated) | inactive |
| COc1cc([N+](=O)[O-])cc2c1NC(c1ccccc1Cl)C1CC=CC21 (configuration not stated) | inactive |
| O=C1CC(c2ccc3c(c2)OCO3)c2ccc3ccccc3c2N1 (configuration not stated) | inactive |
| CCOc1cc2c(c([N+](=O)[O-])c1)NC(c1ccc(Cl)cc1)C1CC=CC21 (configuration not stated) | inactive |

[Q] Send back G-protein coupled estrogen receptor 1 (Homo sapiens) (UniProt Q99527) inhibition of CCc1cc2c3c(c(=O)oc2cc1OCC(=O)O)CCCC3 only.
[A] 10% (inactive)

[Q] Send back G-protein coupled estrogen receptor 1 (Homo sapiens) (UniProt Q99527) inhibition of CC1(C)C=C(c2ccc(O)cc2)CC(C)(C)N1 only.
[A] inactive

[Q] Send back G-protein coupled estrogen receptor 1 (Homo sapiens) (UniProt Q99527) inhibition of CC1CCC2(C)c3[nH]c4ccccc4c3CCN2C1=O (configuration not stated) only.
[A] 2% (inactive)

[Q] Send back G-protein coupled estrogen receptor 1 (Homo sapiens) (UniProt Q99527) inhibition of CCCCc1cc2c(=O)c(-c3ccccn3)coc2cc1O only.
[A] 3% (inactive)

[Q] Send back G-protein coupled estrogen receptor 1 (Homo sapiens) (UniProt Q99527) inhibition of COc1ccc(-n2cc3c(c(C#N)c2=N)CC(C)(C)CC3=O)cc1 only.
[A] inactive

[Q] Send back G-protein coupled estrogen receptor 1 (Homo sapiens) (UniProt Q99527) inhibition of CC(C)CN(Cc1c(O)ccc2c3c(c(=O)oc12)CCC3)CC(C)C only.
[A] 3% (inactive)

[Q] Send back G-protein coupled estrogen receptor 1 (Homo sapiens) (UniProt Q99527) inhibition of COc1ccc(Oc2ccc3c(c2)c2c4n3CCNC4CCC2)cc1 (configuration not stated) only.
[A] inactive

[Q] Send back G-protein coupled estrogen receptor 1 (Homo sapiens) (UniProt Q99527) inhibition of CCOc1ccc(NS(=O)(=O)c2ccc3c(c2)[C@H]2C=CC[C@H]2[C@@H](c2cccc([N+](=O)[O-])c2)N3)cc1 only.
[A] 20% (inactive)

[Q] Send back G-protein coupled estrogen receptor 1 (Homo sapiens) (UniProt Q99527) inhibition of COc1ccc(NS(=O)(=O)c2ccc3c(c2)[C@H]2C=CC[C@H]2[C@@H](c2ccc(F)cc2)N3)cc1 only.
[A] 56% (inactive)

[Q] Send back G-protein coupled estrogen receptor 1 (Homo sapiens) (UniProt Q99527) inhibition of CCCOc1cc(OCCC)c2c3c(c(=O)oc2c1)CCCC3 only.
[A] inactive

[Q] Send back G-protein coupled estrogen receptor 1 (Homo sapiens) (UniProt Q99527) inhibition of COc1cc(C2CC(=O)Nc3c2ccc2ccccc32)cc(Cl)c1O (configuration not stated) only.
[A] 3% (inactive)

[Q] Send back G-protein coupled estrogen receptor 1 (Homo sapiens) (UniProt Q99527) inhibition of CCOC(=O)c1ccc2c(c1)C1C=CCC1C(c1cccc([N+](=O)[O-])c1)N2 (configuration not stated) only.
[A] 48% (inactive)

[Q] Send back G-protein coupled estrogen receptor 1 (Homo sapiens) (UniProt Q99527) inhibition of CCOC(=O)COc1cc2oc(=O)c3c(c2cc1CC)CCCC3 only.
[A] inactive

[Q] Send back G-protein coupled estrogen receptor 1 (Homo sapiens) (UniProt Q99527) inhibition of CCC(Oc1ccc2c3c(c(=O)oc2c1C)CCC3)C(=O)OC (configuration not stated) only.
[A] inactive

[Q] Send back G-protein coupled estrogen receptor 1 (Homo sapiens) (UniProt Q99527) inhibition of CCCCOc1cc(OCCCC)c2c3c(c(=O)oc2c1)CCCC3 only.
[A] 34% (inactive)

[Q] Send back G-protein coupled estrogen receptor 1 (Homo sapiens) (UniProt Q99527) inhibition of Cc1nc2ccccc2n1-c1cc(C(C)(C)C)c(O)c(C(C)(C)C)c1 only.
[A] inactive

[Q] Send back G-protein coupled estrogen receptor 1 (Homo sapiens) (UniProt Q99527) inhibition of N#Cc1c2c(c(=O)n3c1[nH]c1ccccc13)CCCC2 only.
[A] 15% (inactive)

* * *

Biological target: G-protein coupled estrogen receptor 1 (Homo sapiens) (UniProt Q99527)
Assay: displacement of E2-Alexa633 from GPER – cell-based, Cos7 GPR30-GFP, flow cytometry, 10 µM, primary screen (AID 1212)
Conditions: fluorescent estrogen competition, at 10 µM; active compounds read high
Activity calls are given as the source filed them.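 How the source made its calls: active means blocks over 60% of fluorescent estradiol binding at 10 µM; inactive means the rest.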
recorded_metric: inhibition

Here are 4 compounds together with their reported answers.
| compound | inhibition |
| --- | --- |
| Cc1nn(-c2ccccc2)c2sc(C#N)c(N)c12 | 58% (inactive) |
| CC1=CC(C)C2(CO)COC(c3ccccc3O)C1C2C (stereo unspecified) | inactive |
| Cc1cc(C(C)CO)cc(C(C)(C)C)c1O (stereo unspecified) | inactive |
| CCCCc1cc(=O)oc2c(C)c(O)ccc12 | inactive |

[Q] For CC(=O)Oc1ccc2c(c1)CCC1C2C(O)CC2(C)C(=O)CCC12 (stereo unspecified) , write its inhibition.
[A] inactive

[Q] For C=C1c2ccc(OC)cc2NC(=O)N1c1ccccc1 , write its inhibition.
[A] inactive

[Q] For CCOc1cc2c(cc1OCC)C(C1CCCCC1)NCC2 (stereo unspecified) , write its inhibition.
[A] inactive

* * *

Biological target: G-protein coupled estrogen receptor 1 (Homo sapiens) (UniProt Q99527)
Assay: displacement of E2-Alexa633 from GPER – cell-based, Cos7 GPR30-GFP, flow cytometry, 10 µM, primary screen (AID 1212)
Settings: fluorescent estrogen competition, at 10 µM
Active and inactive are the calls of the source.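 The calls were made as follows: active = blocks over 60% of fluorescent estradiol binding at 10 µM; inactive = the rest.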
Select the correct class. Options are y = active, n = inactive and nothing else.

| compound | group_label |
| --- | --- |
| CC(=O)c1ccc2c(c1)C1C=CCC1C(c1cccc([N+](=O)[O-])c1)N2 (centres undefined) | y |

[Q] Would you mind telling me which call this test gave COc1cc([N+](=O)[O-])cc2c1N[C@@H](c1ccc(C(=O)O)cc1)[C@H]1CC=C[C@@H]21 ?
[A] y

[Q] Would you mind telling me which call this test gave O=C(O)c1ccc2c(c1)C1C=CCC1C(c1cccc([N+](=O)[O-])c1)N2 (centres undefined) ?
[A] n

[Q] Would you mind telling me which call this test gave CCCOc1cc2oc(=O)c3c(c2cc1CC)CCCC3 ?
[A] n
